Biological target: T1, recombinant human TfR1 (transferrin receptor protein 1) (human, UniProt P02786 89-760)
T1 construct: Recombinant protein in SPR and ELISA; they were assigned to this molecule; also called hTfR1; huTfR1
T1 sequence (P02786 89-760 limits assumed): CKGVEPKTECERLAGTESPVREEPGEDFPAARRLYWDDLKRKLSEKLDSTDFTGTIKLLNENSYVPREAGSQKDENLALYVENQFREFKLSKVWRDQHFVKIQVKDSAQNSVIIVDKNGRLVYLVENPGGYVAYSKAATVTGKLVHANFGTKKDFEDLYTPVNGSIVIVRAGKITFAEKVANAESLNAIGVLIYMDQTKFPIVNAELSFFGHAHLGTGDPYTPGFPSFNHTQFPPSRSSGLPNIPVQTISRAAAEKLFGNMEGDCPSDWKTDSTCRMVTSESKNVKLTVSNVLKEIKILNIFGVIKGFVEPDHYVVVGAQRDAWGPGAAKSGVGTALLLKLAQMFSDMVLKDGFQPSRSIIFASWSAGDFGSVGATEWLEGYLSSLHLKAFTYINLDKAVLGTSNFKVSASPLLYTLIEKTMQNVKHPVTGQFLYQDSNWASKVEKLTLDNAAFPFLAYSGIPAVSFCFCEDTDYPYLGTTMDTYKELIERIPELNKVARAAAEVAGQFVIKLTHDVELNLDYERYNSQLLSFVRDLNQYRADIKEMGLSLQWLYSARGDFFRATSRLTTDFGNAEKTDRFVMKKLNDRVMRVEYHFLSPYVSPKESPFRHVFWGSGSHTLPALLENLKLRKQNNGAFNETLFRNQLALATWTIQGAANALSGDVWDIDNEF
Experiment: kinetic analysis (Biacore), Table 7; TfR1 species not stated
METRIC: kon (M⁻¹ s⁻¹)

1. humanized anti-TfR Fab 3A4 VH3 (N54T)/Vκ4 (Fab, V domains shown, also called 3A4 (VH3-N54T/Vk4)) VH: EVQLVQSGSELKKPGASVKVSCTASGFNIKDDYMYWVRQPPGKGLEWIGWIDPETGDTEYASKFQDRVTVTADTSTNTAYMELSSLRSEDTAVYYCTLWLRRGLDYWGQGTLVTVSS VL: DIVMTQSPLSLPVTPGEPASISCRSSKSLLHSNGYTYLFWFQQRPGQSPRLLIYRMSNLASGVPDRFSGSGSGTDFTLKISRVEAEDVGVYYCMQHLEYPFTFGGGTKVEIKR = 228000
2. humanized anti-TfR Fab 5H12 VH5 (C33D)/Vκ4 (Fab, V domains shown, also called 5H12 (VH5-C33D/Vk4)) VH: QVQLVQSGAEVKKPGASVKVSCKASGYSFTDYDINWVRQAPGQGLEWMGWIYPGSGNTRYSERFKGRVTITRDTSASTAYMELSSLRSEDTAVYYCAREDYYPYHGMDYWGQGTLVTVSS VL: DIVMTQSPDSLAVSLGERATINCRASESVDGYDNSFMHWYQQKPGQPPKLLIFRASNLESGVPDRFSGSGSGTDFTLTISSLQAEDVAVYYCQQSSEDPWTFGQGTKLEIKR = 678000
3. humanized anti-TfR Fab 5H12 VH5 (C33Y)/Vκ3 (Fab, V domains shown, also called 5H12 (VH5-C33Y/Vk3)) VH: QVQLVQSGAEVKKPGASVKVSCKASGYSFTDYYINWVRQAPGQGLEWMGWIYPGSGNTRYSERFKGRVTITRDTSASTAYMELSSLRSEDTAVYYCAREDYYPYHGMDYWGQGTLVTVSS VL: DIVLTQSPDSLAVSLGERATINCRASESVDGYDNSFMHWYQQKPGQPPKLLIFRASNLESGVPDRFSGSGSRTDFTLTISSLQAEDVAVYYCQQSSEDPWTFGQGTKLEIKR = 195000
